EXPERIMENT_NOTES: 1-month depot PK, prostate cancer patients
Format: in vivo, human
APPLIED_CONDITIONS: male, human, plasma, sc, 12 mg/month, prostate cancer patients, 1-month depot SC 12 mg/month, geometric mean; read-out: AUC (0-24) (converted)
Where a SMILES comes first, the peptide text is derived from it. [ ]: non-standard residue; d: D form. Arg(Me) = CNC(=N)NCCC[C@H](N)C(=O)O; Hyp = O=C(O)[C@@H]1C[C@@H](O)CN1; azaGly = NNC(=O)O

>  <COMPOUND>
CC(=O)O.CNC(=N)NCCC[C@H](NC(=O)[C@H](CC(C)C)NC(=O)NNC(=O)[C@H](Cc1ccccc1)NC(=O)[C@@H](NC(=O)[C@H](CC(N)=O)NC(=O)[C@@H]1C[C@@H](O)CN1C(=O)[C@@H](Cc1ccc(O)cc1)NC(C)=O)[C@@H](C)O)C(=O)N[C@@H](Cc1c[nH]c2ccccc12)C(N)=O [API-MA] (Ac-[dY][Hyp]NTF[azaGly]L[Arg(Me)]W-NH2)

>  <AUC(0-t) [ng·h/mL]>
119

$$$$

---

EXPERIMENT_NOTES: Single dose PK, phase 1, healthy European men
Type: in vivo, human
APPLIED_CONDITIONS: male, human, urine and plasma, single SC 0.003 mg, geometric mean, read-out: CLr (renal clearance) (converted)
Where a SMILES comes first, the peptide text is derived from it. [ ]: non-standard residue; d: D form. Arg(Me) = CNC(=N)NCCC[C@H](N)C(=O)O; Hyp = O=C(O)[C@@H]1C[C@@H](O)CN1; azaGly = NNC(=O)O
PROPERTY_NAME: CL renal

>  <COMPOUND>
CC(=O)O.CNC(=N)NCCC[C@H](NC(=O)[C@H](CC(C)C)NC(=O)NNC(=O)[C@H](Cc1ccccc1)NC(=O)[C@@H](NC(=O)[C@H](CC(N)=O)NC(=O)[C@@H]1C[C@@H](O)CN1C(=O)[C@@H](Cc1ccc(O)cc1)NC(C)=O)[C@@H](C)O)C(=O)N[C@@H](Cc1c[nH]c2ccccc12)C(N)=O [API-MA] (Ac-[dY][Hyp]NTF[azaGly]L[Arg(Me)]W-NH2)

>  <PROPERTY_NAME>
CL renal

>  <EXPERIMENTAL_VALUE>
19700 mL/min

$$$$

---

EXPERIMENT_NOTES: Single dose PK, phase 1, healthy Japanese men
Format: in vivo, human
APPLIED_CONDITIONS: male, human, plasma, sc, 0.001 mg, single SC bolus 0.001 mg, mean
Where a SMILES comes first, the peptide text is derived from it. [ ]: non-standard residue; d: D form. Arg(Me) = CNC(=N)NCCC[C@H](N)C(=O)O; Hyp = O=C(O)[C@@H]1C[C@@H](O)CN1; azaGly = NNC(=O)O
PROPERTY_NAME: Cmax (ng/mL)

>  <MOLECULE>
CC(=O)O.CNC(=N)NCCC[C@H](NC(=O)[C@H](CC(C)C)NC(=O)NNC(=O)[C@H](Cc1ccccc1)NC(=O)[C@@H](NC(=O)[C@H](CC(N)=O)NC(=O)[C@@H]1C[C@@H](O)CN1C(=O)[C@@H](Cc1ccc(O)cc1)NC(C)=O)[C@@H](C)O)C(=O)N[C@@H](Cc1c[nH]c2ccccc12)C(N)=O [API-MA] (Ac-[dY][Hyp]NTF[azaGly]L[Arg(Me)]W-NH2)

>  <EXPERIMENTAL_VALUE>
0.0201

$$$$
